// provenance: patent US4311698A

Entero Cloac. IM 11 MIC data
# number only, unit µg/mL dropped from output

CC(=O)N[C@H](C)C(=O)Nc1cccc(-c2ccc(C(=O)N[C@@H](C(=O)NC3C(=O)N4C(C(=O)O)=C(COC(C)=O)CSC34)c3ccccc3)c(=O)[nH]2)c1 (stereo partly drawn) ... 50

Look up MIC of CC(=O)N[C@@H](C)C(=O)Nc1ccc(-c2ccc(C(=O)N[C@@H](C(=O)NC3C(=O)N4C(C(=O)O)=C(CSc5nnc(C)s5)CSC34)c3ccccc3)c(=O)[nH]2)cc1 (stereo partly drawn) and report it. 12.5

Look up MIC of CC(=O)N[C@@H](C)C(=O)Nc1ccc(-c2ccc(C(=O)N[C@@H](C(=O)NC3C(=O)N4C(C(=O)O)=C(COC(C)=O)CSC34)c3ccccc3)c(=O)[nH]2)cc1 (stereo partly drawn) and report it. 12.5

====

Staph UC76 log10 of MIC data
All values: base-10 log of MIC in µg/mL.

Please review the following examples before continuing.
CC(=O)NC(C)C(=O)Nc1ccc(-c2ccc(C(=O)N[C@@H](C(=O)NC3C(=O)N4C(C(=O)O)=C(CSc5nnc(C)s5)CSC34)c3ccccc3)c(=O)[nH]2)cc1 (mixture of isomers) ... -0.40
CC(=O)N[C@H](CC(N)=O)C(=O)Nc1ccc(-c2ccc(C(=O)N[C@@H](C(=O)NC3C(=O)N4C(C(=O)O)=C(COC(C)=O)CSC34)c3ccccc3)c(=O)[nH]2)cc1 (some centres unmarked) ... -0.10
CC(=O)OCC1=C(C(=O)O)N2C(=O)C(NC(=O)[C@H](NC(=O)c3ccc(-c4ccc(NC(=O)C5CCCN5C(C)=O)cc4)[nH]c3=O)c3ccccc3)C2SC1 (mixture of isomers) ... 0.20
CC(=O)N[C@H](C)C(=O)Nc1ccc(-c2ccc(C(=O)N[C@@H](C(=O)NC3C(=O)N4C(C(=O)O)=C(COC(N)=O)CSC34)c3ccccc3)c(=O)[nH]2)cc1 (some centres unmarked) ... -0.40
CC(=O)N[C@H](C)C(=O)Nc1cccc(-c2ccc(C(=O)N[C@@H](C(=O)NC3C(=O)N4C(C(=O)O)=C(COC(C)=O)CSC34)c3ccccc3)c(=O)[nH]2)c1 (some centres unmarked) ... 0.20
O=C(O)Cn1nnnc1SCC1=C(C(=O)O)N2C(=O)C(NC(=O)[C@H](NC(=O)c3ccc(-c4ccc(NC(=O)[C@@H]5CCC(=O)N5)cc4)[nH]c3=O)c3ccccc3)C2SC1 (some centres unmarked) ... 0.49

Retrieve log10 of MIC on Staph UC76; query CC(=O)OCC1=C(C(=O)O)N2C(=O)C(NC(=O)[C@H](NC(=O)c3ccc(-c4ccc(NC(=O)[C@@H]5CCC(=O)N5)cc4)[nH]c3=O)c3ccccc3)C2SC1 (some centres unmarked) -0.10

Retrieve log10 of MIC on Staph UC76; query CC(=O)OCC1=C(C(=O)O)N2C(=O)C(NC(=O)[C@H](NC(=O)c3ccc(-c4ccc(NC(=O)[C@@H]5CC(OC(C)=O)CN5C(C)=O)cc4)[nH]c3=O)c3ccccc3)C2SC1 (some centres unmarked) 0.20

Retrieve log10 of MIC on Staph UC76; query CC(=O)N[C@@H](C)C(=O)Nc1ccc(-c2ccc(C(=O)N[C@@H](C(=O)NC3C(=O)N4C(C(=O)O)=C(CSc5nnc(C)s5)CSC34)c3ccccc3)c(=O)[nH]2)cc1 (some centres unmarked) -0.40

Retrieve log10 of MIC on Staph UC76; query CC(=O)NC(C)C(=O)Nc1ccc(-c2ccc(C(=O)N[C@@H](C(=O)NC3C(=O)N4C(C(=O)O)=C(COC(N)=O)CSC34)c3ccccc3)c(=O)[nH]2)cc1 (mixture of isomers) 0.20

Retrieve log10 of MIC on Staph UC76; query CC(=O)N1CC(O)C[C@H]1C(=O)Nc1ccc(-c2ccc(C(=O)N[C@@H](C(=O)NC3C(=O)N4C(C(=O)O)=C(CSc5nnnn5CC(=O)O)CSC34)c3ccccc3)c(=O)[nH]2)cc1 (some centres unmarked) 0.80

Retrieve log10 of MIC on Staph UC76; query CC(=O)OCC1=C(C(=O)O)N2C(=O)C(NC(=O)[C@H](NC(=O)c3ccc(-c4ccc(NC(=O)[C@@H]5CCC(=O)N5C)cc4)[nH]c3=O)c3ccccc3)C2SC1 (some centres unmarked) -0.40

Retrieve log10 of MIC on Staph UC76; query CC(=O)N[C@@H](C)C(=O)Nc1ccc(-c2ccc(C(=O)N[C@@H](C(=O)NC3C(=O)N4C(C(=O)O)=C(COC(C)=O)CSC34)c3ccccc3)c(=O)[nH]2)cc1 (some centres unmarked) -0.10

Retrieve log10 of MIC on Staph UC76; query CC(=O)N[C@@H](CCC(N)=O)C(=O)Nc1ccc(-c2ccc(C(=O)N[C@@H](C(=O)NC3C(=O)N4C(C(=O)O)=C(CSc5nnnn5C)CSC34)c3ccccc3)c(=O)[nH]2)cc1 (some centres unmarked) -0.40

Retrieve log10 of MIC on Staph UC76; query CC(=O)NCCCC[C@H](NC(C)=O)C(=O)Nc1ccc(-c2ccc(C(=O)N[C@@H](C(=O)NC3C(=O)N4C(C(=O)O)=C(COC(C)=O)CSC34)c3ccccc3)c(=O)[nH]2)cc1 (some centres unmarked) 0.49
